For each of the compounds below, state its GI50.
- Test system: HCC 2998
- Protocol Details: NCI tumour cell line growth inhibition, 48 h
The source made the active and inactive calls. Rule as the data show it: active = GI50 up to about 1.1 µM and inactive = higher.

Data request: What value of GI50 has been reported for the following compound? Cc1nc(=O)[nH]c2c1C(=O)N(C(C)C)C(NC(C)C)S2 (stereo not given)
Data returned: > 100 µM (inactive)

Data request: What value of GI50 has been reported for the following compound? "Nc1ccccc1CCCC(=O)O"
Data returned: > 100 µM (inactive)

Data request: What value of GI50 has been reported for the following compound? "Clc1cccc(-c2sc(-c3ccsc3)cc2Cc2ccsc2)c1"
Data returned: > 10 µM (inactive)

Data request: What value of GI50 has been reported for the following compound? "O=[N+]([O-])c1cc2c(c([N+](=O)[O-])c1)NCc1ccccc1O2"
Data returned: > 100 µM (inactive)

Data request: What value of GI50 has been reported for the following compound? "COc1ccc2cc3n(c(=O)c2c1)CCc1c-3cc(OC)c(OC)c1OC"
Data returned: > 100 µM (inactive)

====

- Test system: SK-MEL-5
- Protocol Details: NCI tumour cell line growth inhibition, 48 h
Activity calls are given as the source filed them. No stated cut-off is given here; in the data, active = GI50 up to about 1.1 µM and inactive = higher.
Use one of these outcomes when replying: y for active, n for inactive

Data request: Could you kindly confirm the outcome this assay logged for COC(=O)C1=C(C)N(NC(=O)c2ccccc2)C2(O)CCCC(=O)C12C (stereo unspecified) ?
Data returned: n

Data request: Could you kindly confirm the outcome this assay logged for "CC(=O)OCc1cc2c(s1)C(=O)c1sccc1C2=O" ?
Data returned: y

Data request: Could you kindly confirm the outcome this assay logged for "CC1=CC(=O)c2c(C=O)c(O)c(O)c(C(C)C)c2C1=O" ?
Data returned: y

Data request: Could you kindly confirm the outcome this assay logged for CC(=O)[C@@]1(C)CC2(CCN(C)CC2)OC1C (stereo partly specified) ?
Data returned: n

Data request: Could you kindly confirm the outcome this assay logged for "Nc1cc2c(cc1[N+](=O)[O-])[nH]c1c(-c3ccccc3)nccc12" ?
Data returned: n

Data request: Could you kindly confirm the outcome this assay logged for CCCCCCCC(=O)OCC1OC(n2cc(F)c(=O)[nH]c2=O)C(N)C(OC(=O)CCCCCCC)C1O (stereo unspecified) ?
Data returned: n

====

- Test system: NCI-H522
- Protocol Details: NCI tumour cell line growth inhibition, 48 h
Activity calls are given as the source filed them. No stated cut-off is given here; in the data, active = GI50 up to about 1.1 µM and inactive = higher.
Measured Parameter: GI50

Data request: Give GI50 (NCI-H522) of the following compound: "CC1=CC(=O)c2c(C=O)c(O)c(O)c(C(C)C)c2C1=O"
Data returned: 12.4 µM (inactive)

Data request: Give GI50 (NCI-H522) of the following compound: "Cc1nc2sccn2c1/C=C1/C(=O)Nc2cccc(Cl)c21"
Data returned: 45.8 µM (inactive)

Data request: Give GI50 (NCI-H522) of the following compound: "C/C=C/CP(=O)(c1ccccc1)c1ccccc1"
Data returned: > 100 µM (inactive)

Data request: Give GI50 (NCI-H522) of the following compound: "Nc1ccc(Oc2ccc(C3(c4ccc(Oc5ccc(N)cc5)cc4)C4CC5C6CC7CC5C3C(C7)C6C4)cc2)cc1"
Data returned: > 81.7 µM (inactive)

Data request: Give GI50 (NCI-H522) of the following compound: COc1ccc(C2=CC(c3ccccc3)n3nnnc3N2)cc1 (stereo unspecified)
Data returned: > 100 µM (inactive)

Data request: Give GI50 (NCI-H522) of the following compound: "O=C(Nc1nc(C23CC4CC(CC(C4)C2)C3)cs1)c1cc2ccc(O)cc2oc1=O"
Data returned: 10.2 µM (inactive)
